test system: HEK293 cells overexpressing APOL1 G2; test: APOL1 G2 HEK293 cell rescue assay (reversal of cell death caused by overexpression of APOL1); format: cell-based; conditions: Homo sapiens, HEK293, HEK293 overexpressing APOL1 G2; geometric mean of at least 2 assay runs; † = single assay run
Hi! Could you tag entries with EC50 below 200 nM as Y, and those at or above as N? Much appreciated.

Please state whether EC50 is below 200 nM for `O=C1Nc2ccc(Cl)cc2C12CCN(CCOc1ccc3c(c1)CCS3(=O)=O)CC2`
Y

Quick check: EC50 of `CS(=O)(=O)c1ccc(OCCN2CCC3(CC2)C(=O)N([C@H]2C[C@@H](O)C2)c2ccccc23)cc1` under 200 nM?
N

A record lists CC(c1c(F)cc(OCCN2CCC3(CC2)C(=O)Nc2ccc(C#N)cc23)cc1F)S(C)(=O)=O (centres unmarked) [Compound 137] . Is its EC50 below 200 nM?
Y

Determine whether this molecule shows EC50 lower than 200 nM (ties excluded): `CS(=O)(=O)c1ccc(OCCN2CCC3(CC2)C(=O)Nc2ccc(C#N)cc23)cc1`
N

Consider `CS(=O)(=O)c1ccc(OCCN2CCC3(CC2)C(=O)Nc2ccc(Cl)cc23)cn1` . Does its EC50 lie strictly below 200 nM?
Y

EC50 strictly < 200 nM for this molecule? `O=C1Nc2ccc(Cl)cc2C12CCN(CCOc1ccc3c(cnn3[C@H]3C[C@@H](O)C3)c1)CC2`
Y

API: query returns whether the molecule falls strictly under 200 nM in EC50. Query: `CN1Cc2cc(OCCN3CCC4(CC3)C(=O)N(C)c3ccccc34)ccc2C1=O`
N

---

system: Trypanosoma brucei Lister 427 VSG221 with APOL1 G0 recombinant protein; test: APOL1 G0 trypanosome cell rescue assay (Example B5); format: cell-based; conditions: read-out: APOL1 G0 Trypanosome Rescue EC50; Trypanosoma brucei Lister 427 VSG221 with APOL1 G0 recombinant protein, 20 hours, CellTiter-Glo; geometric mean of at least 2 assay runs; † = single assay run
parameter: pEC50
Bear in mind: pEC50 is minus log10 of a mol/L concentration; give just that figure.

Param item = CS(=O)(=O)C1(c2ccc(OCCN3CCC4(CC3)C(=O)Nc3ccc(C(F)F)cc34)cc2)CC(O)C1 (single isomer, unassigned) [Compound 282] ; retrieve measured pEC50.
6.74

Consider the compound CS(=O)(=O)c1ccc(OCCN2CCC3(CC2)C(=O)Nc2ccc(Cl)cc23)cc1C(F)CF (single isomer, unassigned) [Compound 218] and give its measured pEC50.
7.19

Can you share its pEC50? I mean this compound: CS(=O)(=O)c1ccc(OCCN2CCC3(CC2)C(=O)Nc2ccc(Cl)cc23)cc1C(F)CF (single isomer, unassigned) [Compound 219]
7.65

Value lookup for pEC50; key = O=C1Nc2ccc(Cl)cc2C12CCN(CCOc1ccc(C3CCCS3(=O)=O)cc1)CC2 (single isomer, unassigned) [Compound 177]
6.59

Quick one: pEC50 of CC(c1c(F)cc(OCCN2CCC3(CC2)C(=O)Nc2ccc(Cl)cc23)cc1F)S(C)(=O)=O (single isomer, unassigned) [Compound 143] ?
7.39

What measured pEC50 goes with CC1(O)CC(c2ncc(OCCN3CCC4(CC3)C(=O)Nc3ccc(Cl)cc34)cn2)C1 (single isomer, unassigned) [Compound 392] ?
7.15

---

tested on: HEK293 cells overexpressing APOL1 G2; assay: APOL1 G2 HEK293 cell rescue assay (reversal of cell death caused by overexpression of APOL1); type: cell-based; settings: Homo sapiens, HEK293, HEK293 overexpressing APOL1 G2; geometric mean of at least 2 assay runs; † = single assay run
parameter: EC50
Please state the number and follow it with the unit.

Under HEK293 cells overexpressing APOL1 G2: EC50 value of `O=C1CCc2cc(OCCN3CCC4(CC3)C(=O)Nc3ccc(Cl)cc34)ccc2N1C1COC1` ?
86.5 nM

HEK293 cells overexpressing APOL1 G2 / EC50 / CC[C@]1(O)C[C@H](N2C(=O)CCc3cc(OCCN4CCC5(CC4)C(=O)Nc4ccc(Cl)cc45)cnc32)C1 (single isomer, unassigned) : value?
18.2 nM

Param readout = EC50; param system = HEK293 cells overexpressing APOL1 G2; param query = `C[C@]1(O)C[C@@H](n2ccc3cc(OCCN4CCC5(CC4)C(=O)Nc4ccc(C#N)cc45)cnc32)C1` ; response: value
64.1 nM

Missing value: EC50, HEK293 cells overexpressing APOL1 G2, entry `CC(C)(O)c1ncc(OCCN2CCC3(CC2)C(=O)Nc2ccc(Cl)cc23)cc1C(F)(F)F` . Fill in?
17.2 nM

---

Task for the reader: assign each of the following compounds its reported pEC50.
system: Trypanosoma brucei Lister 427 VSG221 with APOL1 G1 recombinant protein; test: APOL1 G1 trypanosome cell rescue assay (Example B5); assay type: cell-based; details: Trypanosoma brucei, 20 h, read-out: APOL1 G1 Trypanosome Rescue EC50, Trypanosoma brucei Lister 427 VSG221 with APOL1 G1 recombinant protein, 20 hours, CellTiter-Glo; geometric mean of at least 2 assay runs; † = single assay run
Hey, just a heads up that pEC50 is the negative log base 10 of the concentration in molar.

For the record `C[C@]1(O)C[C@@H](n2c(=O)[nH]c3cc(OCCN4CCC5(CC4)C(=O)Nc4ccc(Cl)cc45)cc(C(F)(F)F)c32)C1` , what value of pEC50 is listed for Trypanosoma brucei Lister 427 VSG221 with APOL1 G1 recombinant protein?
8.25

Request - read-out pEC50 | tested on Trypanosoma brucei Lister 427 VSG221 with APOL1 G1 recombinant protein | compound `CC(=O)N1Cc2ccc(OCCN3CCC4(CC3)C(=O)Nc3ccc(Cl)cc34)cc2C1`
6.17

For the record CS(=O)(=O)c1ccc(OCCN2CCC3(CC2)C(=O)Nc2ccc(Cl)cc23)cc1C(O)CO (stereo not drawn) , what value of pEC50 is listed for Trypanosoma brucei Lister 427 VSG221 with APOL1 G1 recombinant protein?
6.04

Give pEC50 (Trypanosoma brucei Lister 427 VSG221 with APOL1 G1 recombinant protein) of the following compound: CC(c1c(F)cc(OCCN2CCC3(CC2)C(=O)Nc2ccc(C#N)cc23)cc1F)S(C)(=O)=O (stereo not drawn) [Compound 137]
6.34

Missing value: pEC50, Trypanosoma brucei Lister 427 VSG221 with APOL1 G1 recombinant protein, entry `O=C(c1ccc(OCCN2CCC3(CC2)C(=O)Nc2ccc(Cl)cc23)cc1F)N1CCOCC1` . Fill in?
6.64

What pEC50 appears in the records for this compound with Trypanosoma brucei Lister 427 VSG221 with APOL1 G1 recombinant protein? `CC1(O)CN(c2ncc(OCCN3CCC4(CC3)C(=O)Nc3ccc(Cl)cc34)cn2)C1`
6.27

Tell me reported pEC50 for `CS(=O)(=O)C1(c2ccc(OCCN3CCC4(CC3)C(=O)Nc3ccc(Cl)cc34)cc2)CCC1` , tested with Trypanosoma brucei Lister 427 VSG221 with APOL1 G1 recombinant protein.
7.32

What value of pEC50 on Trypanosoma brucei Lister 427 VSG221 with APOL1 G1 recombinant protein does `CS(=O)(=O)c1ccc(OCCN2CCC3(CC2)C(=O)Nc2ccc(C#N)cc23)cc1C(F)(F)F` have?
7.03

Please provide the recorded pEC50 for CC1(O)CC(CN2C(=O)CCc3cc(OCCN4CCC5(CC4)C(=O)Nc4ccc(Cl)cc45)cnc32)C1 (stereo not drawn) , tested on Trypanosoma brucei Lister 427 VSG221 with APOL1 G1 recombinant protein.
7.33

# query: pEC50 | item `CC(=O)c1ncc(OCCN2CCC3(CC2)C(=O)Nc2ccc(C(F)F)cc23)cc1C(F)(F)F` | system: Trypanosoma brucei Lister 427 VSG221 with APOL1 G1 recombinant protein
7.40

Give pEC50 (Trypanosoma brucei Lister 427 VSG221 with APOL1 G1 recombinant protein) of the following compound: `O=C1Nc2ccc(Cl)cc2C12CCN(CCOc1ccc3c(c1)CCS3(=O)=O)CC2`
6.73

Record lookup: for Trypanosoma brucei Lister 427 VSG221 with APOL1 G1 recombinant protein, what pEC50 belongs to `C[C@]1(O)C[C@@H](n2cc3cc(OCCN4CCC5(CC4)C(=O)Nc4ccc(C#N)cc45)cc(C(F)(F)F)c3n2)C1` ?
7.14

Quick check: pEC50 on Trypanosoma brucei Lister 427 VSG221 with APOL1 G1 recombinant protein, item `CC(C)(O)c1ncc(OCCN2CCC3(CC2)C(=O)Nc2ccc(Cl)cc23)cn1` ?
6.58

---

Target: APOL1 G2 (Homo sapiens, UniProt O14791, DEL388-389)
Construct: expressed in transfected cells; host or cells: HEK293 T-REx clonal line stably expressing GCaMP6f (HEK T-REx/GCaMP6f/APOL1 G2 K6.3), doxycycline induced
Sequence (O14791 with tags, fused parts or gaps DEL388-389): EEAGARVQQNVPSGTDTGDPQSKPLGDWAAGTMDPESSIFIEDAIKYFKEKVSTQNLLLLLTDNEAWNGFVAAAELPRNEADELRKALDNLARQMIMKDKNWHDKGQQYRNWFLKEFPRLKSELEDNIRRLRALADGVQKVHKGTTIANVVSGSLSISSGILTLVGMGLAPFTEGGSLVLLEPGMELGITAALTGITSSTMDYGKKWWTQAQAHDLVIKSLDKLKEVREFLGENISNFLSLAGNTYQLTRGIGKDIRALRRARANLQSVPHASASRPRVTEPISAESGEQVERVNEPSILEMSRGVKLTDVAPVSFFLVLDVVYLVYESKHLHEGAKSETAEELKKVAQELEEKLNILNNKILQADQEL
Assay: APOL1-mediated calcium transport (calcium influx) assay, HEK T-REx/GCaMP6f/APOL1 G2 K6.3 cells, FLIPR TETRA
Type: cell-based
Details: prevention of calcium influx; geometric mean of at least 2 assay runs; † = average of a technical replicate from a single assay run
Mark each entry yes (1) if its AC50 sits below 700 nM, and no (0) for all others.

For this compound, is AC50 lower than 700 nM? CS(=O)(=O)C1CN(c2ncc(OCCN3CCC4(CC3)C(=O)Nc3ccc(Cl)cc34)cn2)C1 [Compound 302]
no (0)

hey, is AC50 for [2H]C([2H])([2H])N1C(=O)C2(CCN(CCOc3ccc(S(C)(=O)=O)cc3)CC2)c2cc(Cl)ccc21 [Compound 418] lower than 700 nM or not?
yes (1)

Would you kindly verify if AC50 of N#Cc1ccc2c(c1)C1(CCN(CCOc3ccc4c(c3)CCN3C(=O)CCC43)CC1)C(=O)N2 (single isomer, unassigned) [Compound 125] is strictly less than 700 nM?
no (0)

Below 700 nM on AC50? Entry N#Cc1ccc2c(c1)C1(CCN(CCOc3ccc4c(c3)CCC(=O)N4CC(F)F)CC1)C(=O)N2 [Compound 105]
yes (1)

Hello, is AC50 of the following compound strictly smaller than 700 nM? CC1(O)CC(CN2C(=O)CCc3cc(OCCN4CCC5(CC4)C(=O)Nc4ccc(Cl)cc45)cnc32)C1 (stereo not shown) [Compound 327]
yes (1)

Would you kindly verify if AC50 of CN=S(C)(=O)c1ccc(OCCN2CCC3(CC2)C(=O)Nc2ccc(Cl)cc23)cc1 (single isomer, unassigned) [Compound 148] is strictly less than 700 nM?
no (0)

Determine whether this compound shows AC50 lower than 700 nM (ties excluded): [2H]C([2H])([2H])[C@]1(O)C[C@@H](N2C(=O)CCc3cc(OCCN4CCC5(CC4)C(=O)Nc4ccc(Cl)cc45)cnc32)C1 [Compound 461]
yes (1)

The measured values listed here are drawn from patent US12344610B2.
